# Target Of Assay: rat α-glucosidase
# Test Name: α-glucosidase inhibition method
# Format: biochemical
Measured Endpoint: α-Glucosidase inhibition method IC50 value (µg/mL)

[
  {
    "Compound": "O=S(=O)(Nc1nccs1)c1ccc(N=NN(O)c2ccccc2)cc1 [ST-4]",
    "Target Of Assay": "rat α-glucosidase",
    "Result": 280.03
  },
  {
    "Compound": "CCCN(O)N=Nc1ccc(S(=O)(=O)Nc2cc(C)on2)cc1 [SM-3]",
    "Target Of Assay": "rat α-glucosidase",
    "Result": 222.91
  },
  {
    "Compound": "Cc1ccc(N(O)N=Nc2ccc(S(=O)(=O)Nc3cc(C)on3)cc2)cc1 [SM-6]",
    "Target Of Assay": "rat α-glucosidase",
    "Result": 262.74
  },
  {
    "Compound": "Cc1cccc(N(O)N=Nc2ccc(S(=O)(=O)Nc3cc(C)on3)cc2)c1 [SM-5]",
    "Target Of Assay": "rat α-glucosidase",
    "Result": 314.43
  }
]

[a] Cc1cccc(N(O)N=Nc2ccc(S(=O)(=O)Nc3nccs3)cc2)c1 [ST-5]
[b] CCN(O)N=Nc1ccc(S(=O)(=O)Nc2cc(C)on2)cc1 [SM-2]
In: Just tell me: smaller α-Glucosidase inhibition method IC50 value value, a or b ? Field: selected label. Fill in the label of the entry you choose.
Out: b
(b: 201.99 µg/mL, a: 341 µg/mL)

---

# Target Of Assay: rat α-glucosidase
# Test Name: α-glucosidase inhibition method
# Format: biochemical
Measured Endpoint: α-Glucosidase inhibition method IC50 value (µg/mL)

[
  {
    "Smiles Entry": "Cc1noc(NS(=O)(=O)c2ccc(N=NN(O)c3ccccc3)cc2)c1C",
    "Unit Descriptor": "µg/mL",
    "Result": 233
  },
  {
    "Smiles Entry": "CN(O)N=Nc1ccc(S(=O)(=O)Nc2nccs2)cc1",
    "Unit Descriptor": "µg/mL",
    "Result": 238
  },
  {
    "Smiles Entry": "Cc1noc(NS(=O)(=O)c2ccc(N=NN(C)O)cc2)c1C",
    "Unit Descriptor": "µg/mL",
    "Result": 270
  },
  {
    "Smiles Entry": "CCN(O)N=Nc1ccc(S(=O)(=O)Nc2onc(C)c2C)cc1",
    "Unit Descriptor": "µg/mL",
    "Result": 248.64
  },
  {
    "Smiles Entry": "CCCN(O)N=Nc1ccc(S(=O)(=O)Nc2onc(C)c2C)cc1",
    "Unit Descriptor": "µg/mL",
    "Result": 235.55
  },
  {
    "Smiles Entry": "CCN(O)N=Nc1ccc(S(=O)(=O)Nc2nccs2)cc1",
    "Unit Descriptor": "µg/mL",
    "Result": 219
  },
  {
    "Smiles Entry": "Cc1cc(NS(=O)(=O)c2ccc(N=NN(O)c3ccccc3)cc2)no1",
    "Unit Descriptor": "µg/mL",
    "Result": 249
  }
]

---

Quick record: pIC50, UniProt:P00690.
pIC50: −log10 of the molar value.
Measured Endpoint: pIC50

[
  {
    "Molecule": "Cc1cccc(N(O)N=Nc2ccc(S(=O)(=O)Nc3nccs3)cc2)c1 [ST-5]",
    "pIC50": 3.25
  },
  {
    "Molecule": "Cc1ccc(N(O)N=Nc2ccc(S(=O)(=O)Nc3onc(C)c3C)cc2)cc1 [SF-6]",
    "pIC50": 3.21
  },
  {
    "Molecule": "Cc1noc(NS(=O)(=O)c2ccc(N=NN(O)c3ccccc3)cc2)c1C [SF-4]",
    "pIC50": 3.34
  },
  {
    "Molecule": "CCCN(O)N=Nc1ccc(S(=O)(=O)Nc2cc(C)on2)cc1 [SM-3]",
    "pIC50": 3.20
  },
  {
    "Molecule": "Cc1ccc(N(O)N=Nc2ccc(S(=O)(=O)Nc3cc(C)on3)cc2)cc1 [SM-6]",
    "pIC50": 3.37
  },
  {
    "Molecule": "CCCN(O)N=Nc1ccc(S(=O)(=O)Nc2onc(C)c2C)cc1 [SF-3]",
    "pIC50": 3.38
  }
]

[a] CCN(O)N=Nc1ccc(S(=O)(=O)Nc2cc(C)on2)cc1 [SM-2]
[b] CCCN(O)N=Nc1ccc(S(=O)(=O)Nc2nccs2)cc1 [ST-3]
In: Just tell me: smaller pIC50 value, a or b ? Field: selected label. Fill in the label of the entry you choose.
Out: b
(b: 3.23, a: 3.43)

---

# Target Of Assay: rat α-glucosidase
# Test Name: α-glucosidase inhibition method
# Assay type: biochemical
Measured Endpoint: α-Glucosidase inhibition method IC50 value (µg/mL)

[
  {
    "Smiles Entry": "CCCN(O)N=Nc1ccc(S(=O)(=O)Nc2nccs2)cc1",
    "Result": 252
  },
  {
    "Smiles Entry": "Cc1cccc(N(O)N=Nc2ccc(S(=O)(=O)Nc3onc(C)c3C)cc2)c1",
    "Result": 292
  },
  {
    "Smiles Entry": "Cc1ccc(N(O)N=Nc2ccc(S(=O)(=O)Nc3onc(C)c3C)cc2)cc1",
    "Result": 329
  }
]

---

# Target Of Assay: porcine pancreatic α-amylase (Sus scrofa)
# Sequence (P00690 16-511): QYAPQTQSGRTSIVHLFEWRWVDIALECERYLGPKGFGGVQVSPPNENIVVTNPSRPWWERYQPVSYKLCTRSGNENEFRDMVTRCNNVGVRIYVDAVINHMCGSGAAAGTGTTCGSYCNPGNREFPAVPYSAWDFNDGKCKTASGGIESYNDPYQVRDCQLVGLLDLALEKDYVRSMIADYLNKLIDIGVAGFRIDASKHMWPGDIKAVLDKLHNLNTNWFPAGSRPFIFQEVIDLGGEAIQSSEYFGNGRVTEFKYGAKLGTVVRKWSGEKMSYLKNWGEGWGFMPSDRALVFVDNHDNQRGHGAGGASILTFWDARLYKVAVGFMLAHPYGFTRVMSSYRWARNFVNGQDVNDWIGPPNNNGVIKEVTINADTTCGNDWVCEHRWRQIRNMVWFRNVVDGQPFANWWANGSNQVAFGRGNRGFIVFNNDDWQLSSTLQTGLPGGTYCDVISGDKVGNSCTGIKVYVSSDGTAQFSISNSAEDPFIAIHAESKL
Measured Endpoint: IC50 (µM)

[
  {
    "Smiles Entry": "CN(O)N=Nc1ccc(S(=O)(=O)Nc2nccs2)cc1",
    "Unit Descriptor": "µM",
    "Result": 559
  },
  {
    "Smiles Entry": "CCN(O)N=Nc1ccc(S(=O)(=O)Nc2onc(C)c2C)cc1",
    "Unit Descriptor": "µM",
    "Result": 625
  },
  {
    "Smiles Entry": "Cc1cc(NS(=O)(=O)c2ccc(N=NN(O)c3ccccc3)cc2)no1",
    "Unit Descriptor": "µM",
    "Result": 469
  },
  {
    "Smiles Entry": "O=S(=O)(Nc1nccs1)c1ccc(N=NN(O)c2ccccc2)cc1",
    "Unit Descriptor": "µM",
    "Result": 550
  },
  {
    "Smiles Entry": "Cc1cc(NS(=O)(=O)c2ccc(N=NN(C)O)cc2)no1",
    "Unit Descriptor": "µM",
    "Result": 698
  },
  {
    "Smiles Entry": "CCN(O)N=Nc1ccc(S(=O)(=O)Nc2nccs2)cc1",
    "Unit Descriptor": "µM",
    "Result": 707
  },
  {
    "Smiles Entry": "Cc1cccc(N(O)N=Nc2ccc(S(=O)(=O)Nc3cc(C)on3)cc2)c1",
    "Unit Descriptor": "µM",
    "Result": 519
  },
  {
    "Smiles Entry": "Cc1noc(NS(=O)(=O)c2ccc(N=NN(C)O)cc2)c1C",
    "Unit Descriptor": "µM",
    "Result": 531
  }
]
